pIC50 reference
# systemUnderTest: Bifunctional dihydrofolate reductase-thymidylate synthase (Toxoplasma gondii, UniProt Q07422)
# Sequence (Q07422 whole entry): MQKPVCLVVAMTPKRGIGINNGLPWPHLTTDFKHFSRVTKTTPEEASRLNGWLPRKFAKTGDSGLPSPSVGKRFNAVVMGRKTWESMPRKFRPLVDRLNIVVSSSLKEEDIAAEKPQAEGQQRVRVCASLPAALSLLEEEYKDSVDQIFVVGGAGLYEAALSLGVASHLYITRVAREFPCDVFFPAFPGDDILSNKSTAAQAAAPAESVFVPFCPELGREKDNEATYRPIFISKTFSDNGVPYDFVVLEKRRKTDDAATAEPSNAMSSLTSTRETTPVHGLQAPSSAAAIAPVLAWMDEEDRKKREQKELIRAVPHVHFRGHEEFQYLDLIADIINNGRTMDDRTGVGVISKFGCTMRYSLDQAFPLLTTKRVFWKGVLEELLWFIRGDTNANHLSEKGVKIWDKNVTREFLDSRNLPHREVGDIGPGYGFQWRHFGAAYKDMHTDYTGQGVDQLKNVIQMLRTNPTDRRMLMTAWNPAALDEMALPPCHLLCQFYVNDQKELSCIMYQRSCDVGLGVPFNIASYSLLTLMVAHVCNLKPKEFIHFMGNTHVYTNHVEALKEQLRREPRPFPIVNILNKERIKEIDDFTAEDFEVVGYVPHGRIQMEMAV
pIC50: −log10 of the molar value.

compound: COc1ccc(OC)c(NCc2coc3nc(N)nc(N)c23)c1
cmp: <
pIC50: 4.68

compound: COc1cc(NCc2coc3nc(N)nc(N)c23)cc(OC)c1OC
cmp: =
pIC50: 5.40

compound: CN(Cc1coc2nc(N)nc(N)c12)c1ccc(C(=O)NC(CCC(=O)O)C(=O)O)cc1 (stereo not given)
cmp: =
pIC50: 4.70

compound: Nc1nc(N)c2c(CNc3cc(Cl)c(Cl)c(Cl)c3)coc2n1
cmp: <
pIC50: 5.41

compound: Nc1nc(N)c2c(CNc3ccc(C(=O)NC(CCC(=O)O)C(=O)O)cc3)coc2n1 (stereo not given)
cmp: =
pIC50: 6.15
